Test system: Calf thymus DNA
experiment-notes: Binding affinity to calf thymus DNA assessed as dissociation constant at 10 uM by fluorescence spectroscopy analysis
Assay type: nucleic-acid assay, Bos taurus
metric-name: Kd (µM)
Only the number, expressed in µM, is required.

Kindly note the recorded Kd for `N[C@@H]1CN(C(=O)C2Cc3c(O)c4c(c(O)c3C2)C(=O)c2ccccc2C4=O)C[C@H]1N` , which is 3.2

Kindly note the recorded Kd for `N[C@H]1CCN(C(=O)C2Cc3c(O)c4c(c(O)c3C2)C(=O)c2ccccc2C4=O)C1` , which is 2.9

Kindly note the recorded Kd for `O=C1c2ccccc2C(=O)c2c(O)c3c(c(O)c21)CC(C(=O)NCCOCCO)C3` , which is 90

Kindly note the recorded Kd for `COc1cccc2c1C(=O)c1c(O)c3c(c(O)c1C2=O)C[C@@](O)(C(=O)CO)C[C@@H]3O[C@H]1C[C@H](N)[C@H](O)[C@H](C)O1` , which is 0.7

* * *

Task for the reader: assign each of the following compounds its reported IC50.
System: HCT-116
experiment-notes: Antiproliferative activity against human HCT-116 cells assessed as inhibition of cell growth incubated for 72 hrs by MTT assay
Assay type: functional, cell-based
experimental-parameters: HCT-116, 72 h
Only the number, expressed in nM, is required.

Kindly note the recorded IC50 for `NCCCNC(=O)C1Cc2c(O)c3c(c(O)c2C1)C(=O)c1ccccc1C3=O` , which is 2100

Kindly note the recorded IC50 for `COc1cccc2c1C(=O)c1c(O)c3c(c(O)c1C2=O)C[C@@](O)(C(=O)CO)C[C@@H]3O[C@H]1C[C@H](N)[C@H](O)[C@H](C)O1` , which is 300

Kindly note the recorded IC50 for `CN1CCN(C(=O)C2Cc3c(O)c4c(c(O)c3C2)C(=O)c2ccccc2C4=O)CC1` , which is 24300

Kindly note the recorded IC50 for `O=C1c2ccccc2C(=O)c2c(O)c3c(c(O)c21)CC(C(=O)NC1CNC1)C3` , which is 1400

Kindly note the recorded IC50 for `N[C@H]1CC[C@H](NC(=O)C2Cc3c(O)c4c(c(O)c3C2)C(=O)c2ccccc2C4=O)CC1` , which is 2100

Kindly note the recorded IC50 for `N[C@@H]1CN(C(=O)C2Cc3c(O)c4c(c(O)c3C2)C(=O)c2ccccc2C4=O)C[C@H]1N` , which is 2000

Kindly note the recorded IC50 for `O=C1c2ccccc2C(=O)c2c(O)c3c(c(O)c21)CC(C(=O)NC1CCNCC1)C3` , which is 1000

Kindly note the recorded IC50 for `O=C1c2ccccc2C(=O)c2c(O)c3c(c(O)c21)CC(C(=O)N1CCNCC1)C3` , which is 1300

Kindly note the recorded IC50 for `NCCN(CCN)C(=O)C1Cc2c(O)c3c(c(O)c2C1)C(=O)c1ccccc1C3=O` , which is 1300

Kindly note the recorded IC50 for `O=C1c2ccccc2C(=O)c2c(O)c3c(c(O)c21)CC(C(=O)N1CCC(N2CCCCC2)CC1)C3` , which is 3100

Kindly note the recorded IC50 for O=C1c2ccccc2C(=O)c2c(O)c3c(c(O)c21)CC(C(=O)NC1CCCNC1)C3 (centres undefined) , which is 3200

Kindly note the recorded IC50 for `NCCNC(=O)C1Cc2c(O)c3c(c(O)c2C1)C(=O)c1ccccc1C3=O` , which is 1400

Kindly note the recorded IC50 for `N[C@@H]1CCN(C(=O)C2Cc3c(O)c4c(c(O)c3C2)C(=O)c2ccccc2C4=O)C1` , which is 1100
